Here is a set of molecules with reported pIC50 for Human Factor XIIa (Homo sapiens, UniProt P00748), compiled from the literature.
pIC50: −log10 of the molar value.

Please review the following examples before continuing.
Molecule	pIC50
Cn1ccc(OCC23CC(CNc4cccc5c(N)nccc45)(CN2C(=O)CCc2ccccc2)C3)cc1=O	6.00 to 6.52
Cc1cc(CNC(=O)c2nn(-c3cccc(Cl)c3)c3c2CN(c2ccc4c(c2)CN(CCO)CC4)C3=O)nn1C	5.00 to 5.52
Cn1ccc(OCC23CC(CNc4cccc5c(N)nccc45)(CCO2)C3)cc1=O	6.52 to 7.00
Cc1ccnc(C)c1CNC(=O)c1nn(-c2cccc(Cl)c2)c2c1CCN(c1ccc3c(c1)C(=O)N(CCO)CC3)C2=O	6.52 to 7.00
Cc1cn(C)nc1CNC(=O)c1nn(-c2cccc(Cl)c2)c2c1CCN(c1ccc3c(c1)C(=O)N(C)CC3)C2=O	6.52 to 7.00

// query What value of pIC50 has been reported for the following molecule? `CN1CCN(CCc2ccc(CNc3ccc4c(N)nccc4c3)cc2)CC1`
// result 6.00 to 6.52

// query # input molecule: `Cc1ccncc1CNC(=O)c1nn(-c2cccc(Cl)c2)c2c1CCN(c1ccc3c(c1)C(=O)N(CCO)CCO3)C2=O` ; wanted: its pIC50
// result 7.00 to 8.00

// query Tell me the measured pIC50 of `Nc1nccc2c(NCc3ccc(N4CCn5c(nnc5C(F)(F)F)C4)nn3)cccc12` , please.
// result 6.00 to 6.52

// query What value of measured pIC50 is listed for Cc1cc(N2CCn3c(nnc3C(F)(F)F)C2C)ncc1CNc1ccnc2[nH]c(Cl)cc12 (racemic) ?
// result 7.00 to 8.00

// query Value lookup for pIC50; key = Nc1nccc2c(NCc3ccc(N4CCC(CC(F)F)C4)nc3)cccc12 (stereo not drawn)
// result 5.00 to 5.52

// query Given the entry `CC(C)N1CCC(CN(CCCO)C(=O)c2cccc(CNc3cccc4c(N)nccc34)c2)CC1` , report its measured pIC50.
// result 6.52 to 7.00
